- Test system: PANC-1 cells
- experimentNotes: cell viability assay in PANC-1 cells (compound alone, + 100 ng/ml TNFa, + 300 ng/ml TRAIL)
- Format: cell-based
- experimentalParameters: with 100 ng/ml TNFa; Tables 6-10; read-out: IC50 (μM) in cell viability assay in PANC-1 cells: Compound + 100 ng/ml TNFa
propertyName: IC50 (µM)

molecule	propertyName	measurementQualifier	reportedValue
CN[C@@H](C)C(=O)N[C@H](C(=O)N1C[C@@H](NC(=O)c2cccc(C(=O)N[C@H]3C[C@@H](C(=O)NC4CCCc5c(OC)cccc54)N(C(=O)[C@@H](NC(=O)[C@H](C)NC)C(C)(C)C)C3)c2)C[C@H]1C(=O)NC1CCCc2c(OC)cccc21)C(C)(C)C (single isomer, unassigned) [Compound 47]	IC50	=	0.012
CN[C@@H](C)C(=O)Nc1nc(CC(=O)NCC[C@H](NC(=O)[C@@H](NC(=O)[C@H](C)NC)C(C)(C)C)C(=O)N[C@@H]2CCCc3ccccc32)cs1 [Compound 190]	IC50	>	1
CN[C@@H](C)C(=O)N[C@H](C(=O)N1C[C@@H](NC(=O)c2cccc(C(=O)N[C@H]3C[C@@H](C(=O)N[C@H](COC)[C@@H](C)OC)N(C(=O)[C@@H](NC(=O)[C@H](C)NC)C(C)(C)C)C3)c2)C[C@H]1C(=O)N[C@H](COC)[C@@H](C)OC)C(C)(C)C [Compound 69]	IC50	>	1
CN[C@@H](C)C(=O)N[C@H](C(=O)N1CCC[C@H]1CN1C(=O)OC[C@@H]1Cc1ccccc1)[C@@H](C)OCC#CC#CCO[C@H](C)[C@H](NC(=O)[C@H](C)NC)C(=O)N1CCC[C@H]1CN1C(=O)OC[C@@H]1Cc1ccccc1 [Compound 82]	IC50	=	0.536

---

IC50 by entry:
- Tested on: PANC-1 cells
- experimentNotes: cell viability assay in PANC-1 cells (compound alone, + 100 ng/ml TNFa, + 300 ng/ml TRAIL)
- Format: cell-based
- experimentalParameters: with 100 ng/ml TNFa; Tables 6-10; read-out: IC50 (μM) in cell viability assay in PANC-1 cells: Compound + 100 ng/ml TNFa

molecule	resultUnits	measurementQualifier	IC50
CN[C@@H](C)C(=O)N[C@H](C(=O)N[C@@H](CCNC(=O)c1cccc(C(=O)N[C@H]2C[C@@H](C(=O)N[C@@H]3CCCc4ccccc43)N(C(=O)[C@@H](NC(=O)[C@H](C)NC)C3CCCCC3)C2)c1)C(=O)N[C@H](C)C(C)C)C(C)C [Compound 181]	µM	=	0.037
CN[C@@H](C)C(=O)N[C@H](C(=O)N[C@@H](CCNC(=O)CC[C@H](NC(=O)[C@@H](NC(=O)[C@H](C)NC)C(C)(C)C)C(=O)N[C@@H]1CCCc2ccccc21)C(=O)N[C@@H]1CCCc2ccccc21)C(C)(C)C [Compound 171]	µM	=	0.044
CN[C@@H](C)C(=O)N[C@@H]1CCN(C(=O)c2ccc(C(=O)N[C@H]3C[C@@H](C(=O)N[C@@H]4CCCc5ccccc54)N(C(=O)[C@@H](NC(=O)[C@H](C)NC)C(C)(C)C)C3)cc2)C1 [Compound 186]	µM	=	0.56
CN[C@@H](C)C(=O)N[C@@H](CCCCCC[C@H](NC(=O)[C@H](C)NC)C(=O)N1CCC[C@H]1CNC(=O)Cc1ccccc1)C(=O)N1CCC[C@H]1CNC(=O)Cc1ccccc1 [Compound 77]	µM	>	1

---

- Test system: PANC-1 cells
- experimentNotes: cell viability assay in PANC-1 cells (compound alone, + 100 ng/ml TNFa, + 300 ng/ml TRAIL)
- Assay type: cell-based
- experimentalParameters: with 100 ng/ml TNFa; Tables 6-10; read-out: IC50 (μM) in cell viability assay in PANC-1 cells: Compound + 100 ng/ml TNFa
propertyName: log10 IC50 (log10 of the value in µM)

compound	reportedValue
CN[C@@H](C)C(=O)N[C@H](C(=O)N[C@@H](CCNC(=O)c1cc(C(=O)N[C@H]2C[C@@H](C(=O)N[C@@H]3CCCc4ccccc43)N(C(=O)[C@@H](NC(=O)[C@H](C)NC)C(C)(C)C)C2)cc([N+](=O)[O-])c1)C(=O)N[C@H](C)C(C)C)C(C)C	-1.25
CN[C@@H](C)C(=O)N[C@H](C(=O)N1C[C@@H](NC(=O)c2cccc(C(=O)N[C@H]3C[C@@H](C(=O)NC4CCCc5cc(F)ccc54)N(C(=O)[C@@H](NC(=O)[C@H](C)NC)C(C)(C)C)C3)c2)C[C@H]1C(=O)NC1CCCc2cc(F)ccc21)C(C)(C)C (single isomer, unassigned) [Compound 72]	-2.74
CN[C@@H](C)C(=O)N[C@H](C(=O)N1C[C@@H](NC(=O)c2cccc(C(=O)N[C@H]3C[C@@H](C(=O)NC4CCSc5ccccc54)N(C(=O)[C@@H](NC(=O)[C@H](C)NC)C(C)(C)C)C3)c2)C[C@H]1C(=O)NC1CCSc2ccccc21)C(C)(C)C (single isomer, unassigned) [Compound 67]	-0.72
CN[C@@H](C)C(=O)NC(C(=O)N1C[C@@H](NC(=O)c2cccc(C(=O)N[C@H]3CC(C(=O)N[C@H](CO)Cc4ccccc4)N(C(=O)[C@@H](NC(=O)[C@H](C)NC)C(C)(C)C)C3)c2)CC1C(=O)N[C@H](CO)Cc1ccccc1)C(C)(C)C (stereo partly shown)	-1.30
CN[C@@H](C)C(=O)N[C@H](C(=O)N1C[C@@H](NC(=O)c2cccc(C(=O)N[C@H]3C[C@@H](C(=O)N[C@H](C)Cc4ccccc4)N(C(=O)[C@@H](NC(=O)[C@H](C)NC)C(C)(C)C)C3)c2)C[C@H]1C(=O)NC(C)Cc1ccccc1)C(C)(C)C (stereo partly shown)	-1.19
CN[C@@H](C)C(=O)N[C@H](C(=O)N1CCC[C@H]1C(=O)N[C@H]1c2ccccc2C[C@H]1OCC#CC#CCO[C@@H]1Cc2ccccc2[C@@H]1NC(=O)[C@@H]1CCCN1C(=O)[C@@H](NC(=O)[C@H](C)NC)C(C)(C)C)C(C)(C)C	-2.85
CN[C@@H](C)C(=O)NC(C(=O)N[C@@H](CCNC(=O)CCc1cn([C@H]2C[C@@H](C(=O)N[C@@H]3CCCc4ccccc43)N(C(=O)[C@@H](NC(=O)[C@H](C)NC)C(C)(C)C)C2)nn1)C(=O)N[C@H](C)c1ccccc1)C(C)(C)C (stereo partly shown)	-0.89

---

- Tested on: PANC-1 cells
- experimentNotes: cell viability assay in PANC-1 cells (compound alone, + 100 ng/ml TNFa, + 300 ng/ml TRAIL)
- Assay type: cell-based
- experimentalParameters: with 100 ng/ml TNFa; Tables 6-10; read-out: IC50 (μM) in cell viability assay in PANC-1 cells: Compound + 100 ng/ml TNFa
Each entry belongs to exactly one class, chosen by where its IC50 falls: low class (below 0.01 µM), middle class (0.01 µM to below 0.3 µM), high class (0.3 µM or more)

compound	qualitativeLabel
CN[C@@H](C)C(=O)N[C@H](C(=O)N[C@@H](CCNC(=O)c1ccc(C#Cc2ccc(C(=O)N[C@H]3C[C@@H](C(=O)N[C@@H]4CCCc5ccccc54)N(C(=O)[C@@H](NC(=O)[C@H](C)NC)C(C)(C)C)C3)cc2)cc1)C(=O)NC(C)C(C)C)C(C)C (stereo partly drawn)	middle class
CN[C@@H](C)C(=O)N[C@@H](CCCCCC[C@H](NC(=O)[C@H](C)NC)C(=O)N[C@H]1c2ccccc2C[C@@H]1NC(=O)c1cc2ccccc2cc1OC)C(=O)N[C@H]1c2ccccc2C[C@@H]1NC(=O)c1cc2ccccc2cc1OC	high class
CC[C@@H](NC(=O)[C@@H]1C[C@H](NC(=O)c2cccc(C(=O)N[C@H]3C[C@@H](C(=O)N[C@H](CC)c4ccccc4)N(C(=O)[C@@H](NC(=O)[C@H](C)NC)C(C)(C)C)C3)c2)CN1C(=O)[C@@H](NC(=O)[C@H](C)NC)C(C)(C)C)c1ccccc1 [Compound 1]	low class
CN[C@@H](C)C(=O)N[C@@H](CCCCCC[C@H](NC(=O)[C@H](C)NC)C(=O)N1CCC[C@H]1c1ncc(C(=O)NC(c2ccccc2)c2ccccc2)o1)C(=O)N1CCC[C@H]1c1ncc(C(=O)NC(c2ccccc2)c2ccccc2)o1	high class
CN[C@@H](C)C(=O)N[C@H](C(=O)N1CCC[C@H]1CN1C(=O)OC[C@@H]1Cc1ccccc1)[C@@H](C)OCCCCCCO[C@H](C)[C@H](NC(=O)[C@H](C)NC)C(=O)N1CCC[C@H]1CN1C(=O)OC[C@@H]1Cc1ccccc1	high class
CN[C@@H](C)C(=O)N[C@H](C(=O)N1C[C@@H](NC(=O)c2cccc(C(=O)N[C@H]3C[C@@H](C(=O)NCc4ccc(O)c(OC)c4)N(C(=O)[C@@H](NC(=O)[C@H](C)NC)C(C)(C)C)C3)c2)C[C@H]1C(=O)NCc1ccc(O)c(OC)c1)C(C)(C)C	high class
CN[C@@H](C)C(=O)N[C@@H](CCCCNC(=O)c1cc(C(=O)NCCCC[C@H](NC(=O)[C@H](C)NC)C(=O)N2CCC[C@H]2Cn2nnnc2Sc2ccccc2)[nH]n1)C(=O)N1CCC[C@H]1Cn1nnnc1Sc1ccccc1	high class
CN[C@@H](C)C(=O)N[C@H](C(=O)N1C[C@@H](NC(=O)c2cccc(C(=O)N[C@H]3C[C@@H](C(=O)N[C@H](C)c4ccccn4)N(C(=O)[C@@H](NC(=O)[C@H](C)NC)C(C)(C)C)C3)c2)C[C@H]1C(=O)N[C@H](C)c1ccccn1)C(C)(C)C [Compound 25]	high class
CN[C@@H](C)C(=O)N[C@H](C(=O)N1C[C@@H](NC(=O)c2cccc(C(=O)N[C@H]3C[C@@H](C(=O)NC4CCCc5cccc(F)c54)N(C(=O)[C@@H](NC(=O)[C@H](C)NC)C(C)(C)C)C3)c2)C[C@H]1C(=O)NC1CCCc2cccc(F)c21)C(C)(C)C (single isomer, unassigned) [Compound 71]	low class
CN[C@@H](C)C(=O)N[C@H](C(=O)N1CCC[C@H]1Cn1cnnc1Cc1ccccc1)[C@@H](C)OCC#CC#CCO[C@H](C)[C@H](NC(=O)[C@H](C)NC)C(=O)N1CCC[C@H]1Cn1cnnc1Cc1ccccc1	high class
CN[C@@H](C)C(=O)N[C@@H](CCCCCC[C@H](NC(=O)[C@H](C)NC)C(=O)N1CCC[C@H]1CNC(=O)c1ccccn1)C(=O)N1CCC[C@H]1CNC(=O)c1ccccn1	high class
CN[C@@H](C)C(=O)N[C@H](C(=O)N1C[C@@H](NC(=O)c2cccc(C(=O)N[C@H]3C[C@@H](C(=O)NC4CCOc5ccccc54)N(C(=O)[C@@H](NC(=O)[C@H](C)NC)C(C)(C)C)C3)c2)C[C@H]1C(=O)NC1CCOc2ccccc21)C(C)(C)C (single isomer, unassigned) [Compound 66]	middle class
CN[C@@H](C)C(=O)N[C@H](C(=O)N1CCCC1C(=O)N[C@H](COCC#CC#CCOC[C@@H](NC(=O)[C@H](C)NC(=O)[C@H](NC(=O)[C@@H](C)NC)C1CCCCC1)C(C)C)C1CCCCC1)C(C)(C)C (stereo partly drawn)	low class
CN[C@@H](C)C(=O)N[C@H](C(=O)N1C[C@@H](NC(=O)c2cccc(C(=O)N[C@H]3C[C@@H](C(=O)N[C@@H]4CCCc5ccc(Br)cc54)N(C(=O)[C@@H](NC(=O)[C@H](C)NC)C(C)(C)C)C3)c2)C[C@H]1C(=O)N[C@@H]1CCCc2ccc(Br)cc21)C(C)(C)C (single isomer, unassigned) [Compound 62]	middle class
